System: P-gp Overexpressing NCI/ADR-RES
Assay: Antiproliferative effect, P-gp overexpressing NCI/ADR-RES (SRB assay)
Conditions: Homo sapiens, read-out: IC50 ± SD P-gp Overexpressing NCI/ADR-RES

{"structureSmiles": "COc1ccc(/C=C\\c2cc(OC)c(OC)c(OC)c2)cc1O", "IC50": "9 nM"}
{"structureSmiles": "CSc1ccc(N(C)c2nc(C)nc3c2CCC3)cc1", "IC50": "210 nM"}
{"structureSmiles": "CC(=O)O[C@H]1C(=O)[C@@]2(C)[C@H]([C@H](OC(=O)c3ccccc3)[C@]3(O)C[C@H](OC(=O)[C@H](O)[C@@H](NC(=O)c4ccccc4)c4ccccc4)C(C)=C1C3(C)C)[C@]1(OC(C)=O)CO[C@@H]1C[C@@H]2O", "IC50": "5000 nM"}
